Reference source: patent US20240116985A1

The following molecules are shown together with reported chromatographic logD values.
Assay: CHI Log D procedure
Type: physicochemical
Conditions: pH 7.4, CHI Log D
Reply with the value as a number alone.

{"columns": ["molecule", "chromatographic logD"],
 "data": [
  ["COCCOCCOCCOCCOCCOCCOCCOCCC(=O)NCCCC[C@H](NC(=O)[C@H](CCC(N)=O)NC(=O)[C@H](Cc1csc2ccccc12)NC(=O)[C@H](Cc1ccsc1)NC(=O)[C@]12CCN(C1)C(=O)OCCCC=CCCCC1(CCCC=CC[C@]3(CCCN3C(C)=O)C(=O)N[C@@H](CC(=O)O)C(=O)N[C@@H](CC(C)(C)C)C(=O)N1)C(=O)N[C@@H](CC(=O)O)C(=O)N[C@@H](CC(=O)O)C(=O)N[C@@H](C)C(=O)N[C@@H](C)C(=O)N[C@@H](Cc1ccccc1)C(=O)N[C@@H](CC(N)=O)C(=O)N2)C(N)=O (some centres unmarked)", 1.82]
]}

Pending molecule:
Task: Field request: chromatographic logD | item: CC[C@H](C)[C@H](NC(=O)[C@H](CC(=O)O)NC(=O)C(C)(C)NC(C)=O)C(=O)N[C@]1(C)CCN(C)C(=O)OCC=CCCCCC[C@@](C)(C(=O)N[C@@H](Cc2ccccc2)C(=O)N[C@@H](Cc2c[nH]c3ccccc23)C(N)=O)NC(=O)[C@H](CCC(N)=O)NC(=O)[C@H](Cc2ccccc2)NC(=O)[C@H](C)NC(=O)[C@H](C)NC(=O)[C@H](CCC(=O)O)NC(=O)[C@H](CC(=O)O)NC1=O
Result: 1.4

====

Molecular target: full-length beta-Catenin (Uniprot ID P35222) (Homo sapiens)
Construct: 10 nM full-length beta-Catenin (Uniprot ID P35222)
Experiment: Fluorescence polarization IC50 (beta-catenin / 5FAM-TCF4 10-53 competition)
Format: binding
Conditions: fluorescence polarization; read-out: beta-Catenin FP IC50
The following compounds are shown together with reported IC50 values.
Unit nM implied. Number only.

Task: Field request: IC50 | item: CC(=O)N1CCC[C@]12CCCCCCC1(CCCCCCCCOC(=O)N3CC[C@@](C(=O)N[C@@H](Cc4ccsc4)C(=O)N[C@@H](Cc4csc5ccccc45)C(=O)N[C@@H](CC(C)C)C(N)=O)(C3)NC(=O)[C@H](CC(C)C)NC(=O)[C@H](Cc3ccccc3)NC(=O)[C@H](C)NC(=O)[C@H](CCCCNC(C)C)NC(=O)[C@H](CN(CC(=O)O)CC(F)(F)F)NC(=O)[C@H](CC(=O)O)NC1=O)NC(=O)[C@H](CC(C)(C)C)NC(=O)[C@H](CC(=O)O)NC2=O (stereo partly drawn) [I-1765]
Result: 667

Task: Field request: IC50 | item: CC(=O)N1CCC[C@]12CC=CCCCC1(CCCC=CCCOC(=O)N3CC[C@@](C(=O)N[C@@H](Cc4ccsc4)C(=O)N[C@@H](Cc4csc5ccccc45)C(=O)N[C@@H](CCC(N)=O)C(N)=O)(C3)NC(=O)[C@H](CC(N)=O)NC(=O)[C@H](Cc3ccccc3)NC(=O)[C@H](C)NC(=O)[C@H](C)NC(=O)[C@H](CC(=O)O)NC(=O)[C@H](CC(=O)O)NC1=O)NC(=O)[C@H](CC(C)(C)C)NC(=O)[C@H](CC(=O)O)NC2=O (stereo partly drawn) [I-1812]
Result: 181

Task: Field request: IC50 | item: CC(=O)N1CCC[C@]12CC=CCCCC1(CCCC=CCCCCCC[C@@](C)(C(=O)N[C@@H](Cc3ccccc3)C(=O)N[C@@H](Cc3csc4ccccc34)C(=O)N[C@@H](Cc3c[nH]cn3)C(N)=O)NC(=O)[C@H](CC(N)=O)NC(=O)[C@H](Cc3ccccc3)NC(=O)[C@H](C)NC(=O)[C@H](C)NC(=O)[C@H](CC(=O)O)NC(=O)[C@H](CC(=O)O)NC1=O)NC(=O)[C@H](CC(C)(C)C)NC(=O)[C@H](CC(=O)O)NC2=O (stereo partly drawn) [I-582]
Result: 17.5

====

Biological target: full-length beta-Catenin (Uniprot ID P35222) (Homo sapiens, UniProt P35222)
Construct: 10 nM full-length beta-Catenin (Uniprot ID P35222)
Sequence (P35222 whole entry): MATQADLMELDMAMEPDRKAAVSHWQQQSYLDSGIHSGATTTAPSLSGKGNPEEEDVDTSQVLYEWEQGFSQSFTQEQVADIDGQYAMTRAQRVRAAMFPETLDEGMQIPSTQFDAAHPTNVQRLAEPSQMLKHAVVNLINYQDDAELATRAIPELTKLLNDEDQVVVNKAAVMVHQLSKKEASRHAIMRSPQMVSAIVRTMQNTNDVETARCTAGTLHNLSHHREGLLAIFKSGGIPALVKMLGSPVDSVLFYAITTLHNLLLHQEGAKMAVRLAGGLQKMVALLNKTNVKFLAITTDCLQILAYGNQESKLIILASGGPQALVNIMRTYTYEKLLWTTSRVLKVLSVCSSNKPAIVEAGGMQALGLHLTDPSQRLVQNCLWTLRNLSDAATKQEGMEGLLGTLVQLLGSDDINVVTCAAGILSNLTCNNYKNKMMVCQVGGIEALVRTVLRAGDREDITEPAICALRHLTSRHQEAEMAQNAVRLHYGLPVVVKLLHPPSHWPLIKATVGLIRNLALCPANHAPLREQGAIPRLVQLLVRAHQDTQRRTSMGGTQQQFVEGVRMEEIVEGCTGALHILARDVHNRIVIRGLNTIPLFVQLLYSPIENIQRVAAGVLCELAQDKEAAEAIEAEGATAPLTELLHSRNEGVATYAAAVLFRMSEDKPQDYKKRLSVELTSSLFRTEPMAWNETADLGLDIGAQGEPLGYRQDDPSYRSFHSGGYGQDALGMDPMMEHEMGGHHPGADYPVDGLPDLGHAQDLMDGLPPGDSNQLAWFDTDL
Experiment: Fluorescence polarization IC50 (beta-catenin / 5FAM-TCF4 10-53 competition)
Format: binding
Settings: fluorescence polarization, beta-catenin; read-out: FP EC50
The following compounds are shown together with reported IC50 values.
Unit µM implied. Number only.

{"columns": ["compound", "experimentalSystem", "IC50 [µM]"],
 "data": [
  ["CCN(CC(=O)O)C[C@@H]1NC(=O)[C@H](CC(=O)O)NC(=O)C2(CCCC=CCCCOC(=O)N3CC[C@@](C(=O)N[C@@H](Cc4ccsc4)C(=O)N[C@@H](Cc4csc5ccccc45)C(=O)N[C@@H](CCC(N)=O)C(N)=O)(C3)NC(=O)[C@H](CC(N)=O)NC(=O)[C@H](Cc3ccccc3)NC(=O)[C@H](C)NC(=O)[C@H](C)NC1=O)CCCC=CC[C@]1(CCCN1C(C)=O)C(=O)N[C@@H](CC(=O)O)C(=O)N[C@@H](CC(C)(C)C)C(=O)N2 (some centres unmarked) [I-964]", "full-length beta-Catenin (Uniprot ID P35222) (Homo sapiens, UniProt P35222)", 1.44]
]}

Task: Field request: IC50 | item: CCCC[C@@H]1NC(=O)[C@H](CC(=O)O)NC(=O)[C@]2(CC=CCCCC3(CCCC=CCCCOC(=O)N4CC[C@@](C(=O)N[C@@H](Cc5ccsc5)C(=O)N[C@@H](Cc5csc6ccccc56)C(=O)N[C@@H](CC(C)C)C(N)=O)(C4)NC(=O)[C@H](CC(C)C)NC(=O)[C@H](Cc4ccccc4)NC(=O)[C@H](C)NC(=O)[C@H](C)NC(=O)[C@H](CC(=O)O)NC(=O)[C@H](CC(=O)O)NC3=O)NC1=O)CCCN2C(C)=O (some centres unmarked) [I-1411]
Result: 0.109

====

Assay: Solubility in PBS
Assay type: physicochemical
The following molecules are shown together with reported Solubility values.
Unit µM implied. Number only.

{"columns": ["molecule", "Solubility, µM"],
 "data": [
  ["CC(=O)N1CCC[C@]12CC=CCCCC1(CCCC=CCCCCCC[C@@](C)(C(=O)N[C@@H](Cc3ccccc3)C(=O)N[C@@H](Cc3csc4ccccc34)C(=O)N(C)[C@@H](Cc3cnc[nH]3)C(N)=O)NC(=O)[C@H](CC(N)=O)NC(=O)[C@H](Cc3ccccc3)NC(=O)[C@H](C)NC(=O)[C@H](C)NC(=O)[C@H](CCC(=O)O)NC(=O)[C@H](CC(=O)O)NC1=O)NC(=O)[C@H](CC(C)C)NC(=O)[C@H](CC(=O)O)NC2=O (stereo partly drawn) [I-747]", 15],
  ["CC(=O)N1CCC[C@]12CC=CCCCC1(CCCC=CCCCCCC[C@@](C)(C(=O)N[C@@H](Cc3ccccc3Cl)C(=O)N[C@@H](Cc3csc4ccccc34)C(=O)N[C@@H](CCO)C(N)=O)NC(=O)[C@H](CC(C)C)NC(=O)[C@H](Cc3ccccc3)NC(=O)[C@H](C)NC(=O)[C@H](C)NC(=O)[C@H](CN(CC(=O)O)CC(F)(F)F)NC(=O)[C@H](CC(=O)O)NC1=O)NC(=O)[C@H](CC(C)(C)C)NC(=O)[C@H](CC(=O)O)NC2=O (stereo partly drawn) [I-997]", 10]
]}

Pending molecule:
Task: Field request: Solubility | item: CC(=O)N1CCC[C@]12CC=CCCCC1(CCCC=CCCCOC(=O)N3CC[C@@](C(=O)N[C@@H](Cc4ccsc4)C(=O)N[C@@H](Cc4csc5ccccc45)C(=O)N[C@@H](CCC(N)=O)C(N)=O)(C3)NC(=O)[C@H]([C@@H](C)O)NC(=O)[C@H](Cc3ccccc3)NC(=O)[C@H](C)NC(=O)[C@H](C)NC(=O)[C@H](Cc3cccc(C(=O)O)c3)NC(=O)[C@H](CC(=O)O)NC1=O)NC(=O)[C@H](CC(C)(C)C)NC(=O)[C@H](CC(=O)O)NC2=O (stereo partly drawn) [I-981]
Result: 45

====

Molecular target: full-length beta-Catenin (Uniprot ID P35222) (Homo sapiens, UniProt P35222)
Construct: 10 nM full-length beta-Catenin (Uniprot ID P35222)
Assay: Fluorescence polarization IC50 (beta-catenin / 5FAM-TCF4 10-53 competition)
Assay type: binding
Settings: fluorescence polarization; read-out: beta-Catenin FP IC50
experimentalReadout: pIC50
Scale explanation: pIC50 corresponds to minus log10 of a concentration expressed in moles per litre.

Previously resolved entries follow.
{"columns": ["compound", "pIC50"],
 "data": [
  ["CC(=O)N1CCC[C@]12CC=CCCCC1(CCCC=CCCCOC(=O)N3CC[C@@](C(=O)N[C@@H](Cc4ccsc4)C(=O)N[C@@H](Cc4csc5ccccc45)C(=O)N[C@@H](CCC(N)=O)C(N)=O)(C3)NC(=O)[C@H](CC(C)C)NC(=O)[C@H](Cc3ccccc3)NC(=O)[C@H](C)NC(=O)[C@H](C)NC(=O)[C@H](CNCC(=O)O)NC(=O)[C@H](CC(=O)O)NC1=O)NC(=O)[C@H](CC(C)(C)C)NC(=O)[C@H](CC(=O)O)NC2=O (some centres unmarked)", 7.60],
  ["CC(=O)N1CCC[C@]12CC=CCCCC1(CCCC=CCCCOC(=O)N3CC[C@@](C(=O)N[C@@H](Cc4ccccc4)C(=O)N[C@@H](Cc4csc5ccccc45)C(=O)N[C@@H](CCO)C(N)=O)(C3)NC(=O)[C@H](CC(C)C)NC(=O)[C@H](Cc3ccccc3)NC(=O)[C@H](C)NC(=O)[C@H](CCCCNC(C)C)NC(=O)[C@H](CCC(N)=O)NC(=O)[C@H](CC(=O)O)NC1=O)NC(=O)[C@H](CC1CCCCC1)NC(=O)[C@H](CC(N)=O)NC2=O (some centres unmarked)", 6.36],
  ["CCCNC(=O)C[C@@H]1NC(=O)C2(CCCC=CCCCCCC[C@@](C)(C(=O)N[C@@H](Cc3ccccc3)C(=O)N[C@@H](Cc3csc4ccccc34)C(=O)N[C@@H](CCC(N)=O)C(N)=O)NC(=O)[C@H](C(C)C)NC(=O)[C@H](Cc3ccccc3)NC(=O)[C@H](C)NC(=O)[C@H](C)NC(=O)[C@H](CC(=O)O)NC1=O)CCCC=CC[C@]1(CCCN1C(C)=O)C(=O)N[C@@H](CC(=O)O)C(=O)N[C@@H](C)C(=O)N2 (some centres unmarked)", 5.30],
  ["CC(=O)N1CCC[C@]12CC=CCCCC1(CCCC=CCCCOC(=O)N3CC[C@@](C(=O)N[C@@H](Cc4ccsc4)C(=O)N[C@@H](Cc4csc5ccccc45)C(=O)N[C@@H](CCC(N)=O)C(N)=O)(C3)NC(=O)[C@H](Cn3cc(CN4CCS(=O)(=O)CC4)nn3)NC(=O)[C@H](Cc3ccccc3)NC(=O)[C@H](C)NC(=O)[C@H](C)NC(=O)[C@H](CN(CC(=O)O)CC(F)(F)F)NC(=O)[C@H](CC(=O)O)NC1=O)NC(=O)[C@H](CC(C)(C)C)NC(=O)[C@H](CC(=O)O)NC2=O (some centres unmarked) [I-1869]", 7.92]
]}

Task: Field request: pIC50 | item: CC(=O)N1CCC[C@]12CC=CCCCC1(CCCC=CCCCOC(=O)N3CC[C@@](C(=O)N[C@@H](Cc4ccccc4Cl)C(=O)N[C@@H](Cc4csc5ccccc45)C(=O)N[C@@H](CO)C(N)=O)(C3)NC(=O)[C@H](CC(C)C)NC(=O)[C@H](Cc3ccccc3)NC(=O)[C@H](C)NC(=O)C(C)(C)NC(=O)[C@H](Cc3cccc(C(=O)O)c3)NC(=O)[C@H](CC(=O)O)NC1=O)NC(=O)[C@H](CC(C)(C)C)NC(=O)[C@H](CC(=O)O)NC2=O (some centres unmarked) [I-1900]
Result: 6.87
